system tested: Aspartate--tRNA(Asp/Asn) ligase (Mycobacterium tuberculosis (strain ATCC 25618 / H37Rv)) (UniProt P9WFW3)
Sequence (P9WFW3 whole entry): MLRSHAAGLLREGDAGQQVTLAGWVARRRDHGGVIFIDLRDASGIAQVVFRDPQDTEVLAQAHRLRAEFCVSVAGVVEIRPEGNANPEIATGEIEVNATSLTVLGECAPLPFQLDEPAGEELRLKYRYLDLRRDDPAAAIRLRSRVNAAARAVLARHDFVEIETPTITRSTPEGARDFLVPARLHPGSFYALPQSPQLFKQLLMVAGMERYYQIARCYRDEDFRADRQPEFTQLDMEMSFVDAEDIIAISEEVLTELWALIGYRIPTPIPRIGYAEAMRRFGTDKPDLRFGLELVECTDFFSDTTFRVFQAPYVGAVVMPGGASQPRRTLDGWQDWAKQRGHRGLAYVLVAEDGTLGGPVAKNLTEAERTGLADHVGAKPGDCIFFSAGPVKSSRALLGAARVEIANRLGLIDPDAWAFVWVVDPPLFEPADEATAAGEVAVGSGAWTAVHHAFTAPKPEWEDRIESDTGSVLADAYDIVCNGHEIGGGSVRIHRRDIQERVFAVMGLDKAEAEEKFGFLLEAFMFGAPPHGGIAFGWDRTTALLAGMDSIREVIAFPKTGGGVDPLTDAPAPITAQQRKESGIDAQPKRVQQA
test name: Assay for Asp RNA synthetase-1 from Mycobacterium tuberculosis
Format: functional
Set-up: scale not given: in the data most compounds retested in dose-response had high values
reported conditions: 30 µM
Give Percent Effect for every item shown.
# value in %; strip the unit string

Request: Please indicate Percent Effect recorded for "CC(C)NC(=O)[C@@H](NC(=O)N1CCN(c2ccc(Cl)cc2)CC1)C(C)C"
Response: -2.11

Request: Give a short answer stating reported Percent Effect for "c1coc(CN2C[C@H](OCC3CCOCC3)[C@H]3COC[C@H]32)c1" .
Response: 1.73

Request: Output Percent Effect of "O=C(c1ccc2c(c1)COC2)N1CCC(Nc2cccnn2)CC1"
Response: -1.3

Request: Recall and state the measured Percent Effect for Cc1nc(CN2CCC3(CC2)NC(=O)CC3c2ccccc2)cs1 (stereo not given) .
Response: -5.35

Request: Supply measured Percent Effect of "OCCN1CCN(Cc2coc(-c3ccc(Cl)cc3)n2)CC1" in your reply.
Response: 4.16

====

system tested: Aspartate--tRNA(Asp/Asn) ligase (Mycobacterium tuberculosis (strain ATCC 25618 / H37Rv)) (UniProt P9WFW3)
test name: Assay for Asp RNA synthetase-1 from Mycobacterium tuberculosis
Type: functional
Design: scale not given: in the data most compounds retested in dose-response had high values
reported conditions: 30 µM
measured parameter: Percent Effect (%)
The reply should be a number in %, with the unit left off.

Request: Supply Percent Effect value. Item: CCCc1cc(C(=O)N2CCCC2c2cccnc2)[nH]n1 (centres undefined)
Response: 3.74

Request: Fill in reported Percent Effect for this entry: COc1ccc(C(N)c2cccc(S(C)(=O)=O)c2)cc1 (centres undefined)
Response: -2.54

Request: Find the measured Percent Effect of COCCn1cc(C(=O)N2CCCC2c2cc(C)no2)ccc1=O (centres undefined) and report it.
Response: -2.11

Request: Provide Percent Effect value for the following molecule: CC(C)C(=O)N1CCCC(c2ncncc2-c2ccncc2)C1 (centres undefined)
Response: -3.04

Request: Answer with reported Percent Effect of "NC(=O)C1CCN(Cc2cccc(NC(=O)c3ccsc3)c2)CC1"
Response: -1.25

Request: Supply measured Percent Effect of Cc1nc(C2CCCN(C(=O)c3cnn(C(C)(C)C)c3)C2)no1 (centres undefined) in your reply.
Response: -4.47

Request: Tell me Percent Effect reported for CC1CCCN(CCNC(=O)c2ccn(-c3ccccc3)n2)C1 (centres undefined)
Response: 5.86

Request: Please supply the value of reported Percent Effect for the item COc1ccc(COCC(O)CNC(=O)c2cnc(C)cn2)cc1 (centres undefined)
Response: 0.509

Request: Given the molecule O=C(c1n[nH]c(=O)c2ccccc12)N1CCCCC1c1ccn[nH]1 (centres undefined) , write its reported Percent Effect.
Response: -1.09

Request: Please report the measured Percent Effect for "COc1cccc(N2CCN(CCC(=O)NC3CCCC3)CC2)c1"
Response: 1.95

Request: Give Percent Effect for the following molecule: CCCNCC1(O)CCCN(Cc2cccc(C)c2)C1=O (centres undefined)
Response: -0.345

Request: Answer with reported Percent Effect of CCn1cc(CN2CCCC(c3[nH]ncc3S(C)(=O)=O)C2)cn1 (centres undefined)
Response: -1.6

Request: Indicate its recorded Percent Effect; the molecule in question is Cc1cc(C)n(CC2CCCN2CC(=O)N(C)Cc2cnn(C)c2)n1 (centres undefined)
Response: -0.211

Request: Give me measured Percent Effect, please, for this molecule: "CCn1c(N)nc2cc(C(=O)NCCc3ccccc3C)cnc21"
Response: 7.33

Request: // fetch Percent Effect given entry Cc1nc(C2CCCN(C(=O)c3ccc(OCC4CC4)cc3)C2)no1 (centres undefined)
Response: -8.26

Request: Supply Percent Effect value. Item: O=C(c1cccc(N2CCCC2=O)c1)N1CCCC(n2cncn2)C1 (centres undefined)
Response: -4.55

Request: Identify the reported Percent Effect for the following entry. "Cn1cc(CN2CC3(CCN(C(=O)c4cscn4)C3)C2)cn1"
Response: -5.56

Request: Report measured Percent Effect; entry is "Cc1cc(O)c(OCC(=O)/N=c2\[nH]cc(C)s2)cn1"
Response: -2.4

Request: Give the value of Percent Effect reported for the following: "O=C(Nc1cnn(CCN2CCOCC2)c1)c1ccccc1O"
Response: -0.989

Request: State its Percent Effect for this molecule: "C[C@@H]1CN(C(=O)c2cnc(C3CC3)nc2)CC[C@@]1(O)C1CCOCC1"
Response: 1.53

Request: Provide Percent Effect value for the following molecule: c1coc(-c2nnc(CN3CCOC(Cn4cccn4)C3)o2)c1 (centres undefined)
Response: -4.34

Request: Dear colleague, please send me the reported Percent Effect for "COCCNC(=O)Nc1ccc(-n2cncn2)c(F)c1" when you can.
Response: -2.66

Request: State, in one line, measured Percent Effect of Cc1cncc(C2CCCN(C(=O)c3scnc3C)C2)n1 (centres undefined)
Response: -4.36

Request: Entry "CC(C)=CCN1C[C@H]2CC[C@@H]1CN(C(=O)c1c[nH]c(=O)c(Cl)c1)C2" needs its Percent Effect filled in; supply it.
Response: 4.22

Each recorded value in this set is attributed to ChEMBL document CHEMBL3988442.
